study-target: hERG channel (Homo sapiens, UniProt Q12809)
Construct: expressed in transfected cells
Sequence (Q12809 whole entry): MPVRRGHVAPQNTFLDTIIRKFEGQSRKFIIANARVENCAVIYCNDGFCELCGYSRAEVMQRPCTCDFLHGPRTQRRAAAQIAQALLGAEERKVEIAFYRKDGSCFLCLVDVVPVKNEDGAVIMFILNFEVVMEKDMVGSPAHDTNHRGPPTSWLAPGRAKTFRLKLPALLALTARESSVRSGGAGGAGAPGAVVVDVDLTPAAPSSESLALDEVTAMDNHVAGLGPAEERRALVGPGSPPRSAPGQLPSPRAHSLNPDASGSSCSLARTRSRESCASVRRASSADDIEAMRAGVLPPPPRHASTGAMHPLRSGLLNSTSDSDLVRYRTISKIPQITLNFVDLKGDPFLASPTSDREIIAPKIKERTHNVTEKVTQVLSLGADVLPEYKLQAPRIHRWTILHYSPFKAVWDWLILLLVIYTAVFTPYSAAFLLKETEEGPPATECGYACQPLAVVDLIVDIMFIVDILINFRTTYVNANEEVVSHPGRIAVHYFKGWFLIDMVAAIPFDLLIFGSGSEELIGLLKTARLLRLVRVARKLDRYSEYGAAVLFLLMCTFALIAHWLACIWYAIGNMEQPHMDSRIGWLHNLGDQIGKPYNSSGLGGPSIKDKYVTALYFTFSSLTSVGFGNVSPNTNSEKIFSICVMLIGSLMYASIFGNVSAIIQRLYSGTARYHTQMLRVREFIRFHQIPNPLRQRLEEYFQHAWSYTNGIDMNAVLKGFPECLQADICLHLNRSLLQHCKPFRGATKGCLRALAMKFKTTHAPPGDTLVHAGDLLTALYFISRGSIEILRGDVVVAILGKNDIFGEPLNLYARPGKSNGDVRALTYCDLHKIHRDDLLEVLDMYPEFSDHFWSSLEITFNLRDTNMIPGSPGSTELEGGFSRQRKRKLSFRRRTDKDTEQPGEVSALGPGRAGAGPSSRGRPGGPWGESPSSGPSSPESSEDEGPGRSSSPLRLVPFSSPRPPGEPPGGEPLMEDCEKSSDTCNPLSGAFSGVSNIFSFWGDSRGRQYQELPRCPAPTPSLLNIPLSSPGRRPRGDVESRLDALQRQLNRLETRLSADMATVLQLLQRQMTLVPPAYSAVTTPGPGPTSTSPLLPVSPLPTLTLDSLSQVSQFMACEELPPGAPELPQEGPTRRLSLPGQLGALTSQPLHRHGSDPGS
protocol: hERG electrophysiology, automated whole-cell patch clamp (Patchliner)
Type: cell-based
test-context: hERG channel, whole-cell patch clamp
// reported IC50 for each item listed

# compound, study-target, IC50
data = [
    ("O=C1C[C@@H](CN2CC(O)C2)C[C@@H]2C[C@H](c3c(O)ccc(Cl)c3Cl)CN12 (single isomer, unassigned)", "hERG channel (Homo sapiens, UniProt Q12809)", "> 30 µM"),
    ("CN(C)CC1CC(=O)N2C[C@@H](c3c(O)ccc(Cl)c3Cl)C[C@H]2C1 (stereo partly drawn)", "hERG channel (Homo sapiens, UniProt Q12809)", "< 10 µM"),
    ("O=C1O[C@H](CO)C[C@@H]2C[C@H](c3c(O)ccc(Cl)c3Cl)CN12 (single isomer, unassigned)", "hERG channel (Homo sapiens, UniProt Q12809)", "> 30 µM"),
    ("Nc1ccnc(N2CC(=O)N3C[C@@H](c4c(O)ccc(Cl)c4Cl)C[C@H]3C2)c1", "hERG channel (Homo sapiens, UniProt Q12809)", "< 10 µM"),
    ("C[C@@H](C1CNC1)N1CC(=O)N2C[C@@H](c3c(O)ccc(Cl)c3Cl)C[C@H]2C1 (single isomer, unassigned)", "hERG channel (Homo sapiens, UniProt Q12809)", "> 30 µM"),
    ("O=C1C(CN2CCCC2)OC[C@@H]2C[C@H](c3c(O)ccc(Cl)c3Cl)CCN12 (stereo partly drawn)", "hERG channel (Homo sapiens, UniProt Q12809)", "< 10 µM"),
    ("O=C1O[C@@H](CO)[C@@H]2C[C@H](c3c(O)ccc(Cl)c3Cl)CN12 (single isomer, unassigned)", "hERG channel (Homo sapiens, UniProt Q12809)", "> 30 µM"),
    ("O=C(N1CC(CO)C1)N1CC(=O)N2C[C@@H](c3c(O)ccc(Cl)c3Cl)C[C@H]2C1", "hERG channel (Homo sapiens, UniProt Q12809)", "> 30 µM"),
    ("C[C@H]1[C@@H]2C[C@H](c3c(O)ccc(Cl)c3Cl)CCN2C(=O)CN1C(=O)CO (single isomer, unassigned; isomer 2)", "hERG channel (Homo sapiens, UniProt Q12809)", "> 30 µM"),
    ("O=C1CN(c2cnc(CO)cn2)C[C@@H]2C[C@H](c3c(O)ccc(Cl)c3Cl)CN12", "hERG channel (Homo sapiens, UniProt Q12809)", "< 30 µM"),
    ("O=C(NCCO)[C@@H]1CC(=O)N2C[C@@H](c3c(O)ccc(Cl)c3Cl)C[C@H]2C1 (single isomer, unassigned)", "hERG channel (Homo sapiens, UniProt Q12809)", "> 30 µM"),
    ("O=C1CC(N2CCOCC2)C[C@@H]2C[C@H](c3c(O)ccc(Cl)c3Cl)CN12 (stereo partly drawn)", "hERG channel (Homo sapiens, UniProt Q12809)", "< 30 µM"),
    ("O=C1O[C@H](CN2CC(O)C2)[C@@H]2C[C@H](c3c(O)ccc(Cl)c3Cl)CN12 (single isomer, unassigned)", "hERG channel (Homo sapiens, UniProt Q12809)", "> 30 µM"),
    ("O=C1C[C@@H](N2CC[C@@H](O)C2)C[C@@H]2C[C@H](c3c(O)ccc(Cl)c3Cl)CN12 (single isomer, unassigned)", "hERG channel (Homo sapiens, UniProt Q12809)", "> 30 µM"),
    ("COC[C@@H](CO)N1CC(=O)N2C[C@@H](c3c(O)ccc(Cl)c3Cl)C[C@H]2C1 (single isomer, unassigned; isomer 2)", "hERG channel (Homo sapiens, UniProt Q12809)", "> 30 µM"),
    ("O=C1CN(CC2CNC2)C[C@@H]2C[C@H](c3c(O)ccc(Cl)c3Cl)CN12", "hERG channel (Homo sapiens, UniProt Q12809)", "> 30 µM"),
    ("O=C1CC(O)C[C@@H]2C[C@H](c3c(O)ccc(Cl)c3Cl)CCN12 (stereo partly drawn)", "hERG channel (Homo sapiens, UniProt Q12809)", "> 30 µM"),
    ("O=C(CO)NCC1OC[C@@H]2C[C@H](c3c(O)ccc(Cl)c3Cl)CCN2C1=O (stereo partly drawn)", "hERG channel (Homo sapiens, UniProt Q12809)", "> 30 µM"),
    ("O=C1C[C@H](c2cn[nH]c2)C[C@@H]2C[C@H](c3c(O)ccc(Cl)c3Cl)CN12 (single isomer, unassigned)", "hERG channel (Homo sapiens, UniProt Q12809)", "< 10 µM"),
    ("C[C@@H](CO)N1CC(=O)N2C[C@@H](c3c(O)ccc(Cl)c3Cl)C[C@H]2C1 (single isomer, unassigned; isomer 2)", "hERG channel (Homo sapiens, UniProt Q12809)", "> 30 µM"),
    ("O=C1O[C@H](CN2CCOCC2)[C@@H]2C[C@H](c3c(O)ccc(Cl)c3Cl)CN12 (single isomer, unassigned)", "hERG channel (Homo sapiens, UniProt Q12809)", "> 30 µM"),
    ("O=C1CN([C@@H]2COC[C@H]2O)C[C@@H]2C[C@H](c3c(O)ccc(Cl)c3Cl)CN12 (relative stereo)", "hERG channel (Homo sapiens, UniProt Q12809)", "> 30 µM"),
    ("O=C1C(CN2CC(O)C2)OC[C@@H]2C[C@H](c3c(O)ccc(Cl)c3Cl)CCN12 (stereo partly drawn)", "hERG channel (Homo sapiens, UniProt Q12809)", "< 30 µM"),
    ("O=C1CN(CCN2CCOCC2)C[C@@H]2C[C@H](c3c(O)ccc(Cl)c3Cl)CN12", "hERG channel (Homo sapiens, UniProt Q12809)", "< 30 µM"),
    ("O=C1CN([C@H]2COC[C@@H]2O)C[C@@H]2C[C@H](c3c(O)ccc(Cl)c3Cl)CN12 (relative stereo)", "hERG channel (Homo sapiens, UniProt Q12809)", "> 30 µM"),
    ("CN1CC(N2CC(=O)N3C[C@@H](c4c(O)ccc(Cl)c4Cl)C[C@H]3C2)C1", "hERG channel (Homo sapiens, UniProt Q12809)", "< 30 µM"),
    ("O=C1CN([C@H]2C[C@@](O)(CO)C2)C[C@@H]2C[C@H](c3c(O)ccc(Cl)c3Cl)CN12 (single isomer, unassigned; isomer 2)", "hERG channel (Homo sapiens, UniProt Q12809)", "> 30 µM"),
]

---

study-target: hERG channel (Homo sapiens, UniProt Q12809)
Construct: expressed in transfected cells
protocol: hERG electrophysiology, automated whole-cell patch clamp (Patchliner)
Format: cell-based
test-context: hERG channel, whole-cell patch clamp
// reported IC50 for each item listed

# molecule, study-target, IC50
records = [
    ("CCO[C@H](CO)C(=O)N1CC(=O)N2C[C@@H](c3c(O)ccc(Cl)c3Cl)C[C@H]2C1 [Compound 66]", "hERG channel (Homo sapiens, UniProt Q12809)", "> 30 µM"),
    ("O=C1OC[C@H](O)[C@@H]2C[C@H](c3c(O)ccc(Cl)c3Cl)CN12 (single isomer, unassigned) [Compound 267]", "hERG channel (Homo sapiens, UniProt Q12809)", "> 30 µM"),
    ("C[C@@H]1CN(C(=O)CO)C[C@@H]2C[C@H](c3c(O)ccc(Cl)c3Cl)CN2C1=O (single isomer, unassigned; isomer 1) [Compound 91]", "hERG channel (Homo sapiens, UniProt Q12809)", "> 30 µM"),
]

---

// reported IC50 for each item listed
study-target: hERG channel (Homo sapiens, UniProt Q12809)
Construct: expressed in transfected cells
protocol: hERG electrophysiology, automated whole-cell patch clamp (Patchliner)
Type: cell-based
test-context: hERG channel, whole-cell patch clamp

# compound, IC50
data = [
    ("COC[C@H](O)CN1CC(=O)N2C[C@@H](c3c(O)ccc(Cl)c3Cl)C[C@H]2C1 (single isomer, unassigned; isomer 2) [Compound 153]", "< 30 µM"),
    ("CC[C@@H](O)CC(=O)N1CC(=O)N2C[C@@H](c3c(O)ccc(Cl)c3Cl)C[C@H]2C1 [Compound 69]", "> 30 µM"),
    ("O=C1CN([C@H]2C[C@H](O)C2)C[C@@H]2C[C@H](c3c(O)ccc(Cl)c3Cl)CN12 (relative stereo) [Compound 125]", "> 30 µM"),
    ("C[C@H](O)[C@H]1OC(=O)N2C[C@@H](c3c(O)ccc(Cl)c3Cl)C[C@@H]12 (single isomer, unassigned) [Compound 258]", "> 30 µM"),
    ("NC[C@@H]1OC(=O)N2C[C@@H](c3c(O)ccc(Cl)c3Cl)C[C@@H]12 (single isomer, unassigned) [Compound 272]", "< 30 µM"),
    ("O=C1C[C@@H](CO)C[C@@H]2C[C@H](c3c(O)ccc(Cl)c3Cl)CN12 (single isomer, unassigned) [Compound 237]", "> 30 µM"),
    ("O=C1O[C@@H](CN2CC(O)C2)[C@@H]2C[C@H](c3c(O)ccc(Cl)c3Cl)CN12 (single isomer, unassigned) [Compound 282]", "< 30 µM"),
    ("O=C1CC(N2CCNCC2)C[C@@H]2C[C@H](c3c(O)ccc(Cl)c3Cl)CN12 (single isomer, unassigned) [Compound 207]", "> 30 µM"),
    ("NC(=O)CC1OC[C@@H]2C[C@H](c3c(O)ccc(Cl)c3Cl)CCN2C1=O (stereo partly drawn) [Compound 187]", "> 30 µM"),
    ("O=C(NC[C@@H]1OC(=O)N2C[C@@H](c3c(O)ccc(Cl)c3Cl)C[C@@H]12)C1CNC1 (single isomer, unassigned) [Compound 277]", "> 30 µM"),
    ("O=C1CN(C[C@@H](O)CO)C[C@@H]2C[C@H](c3c(O)ccc(Cl)c3Cl)CN12 (single isomer, unassigned) [Compound 114]", "> 30 µM"),
    ("O=C1C[C@H](O)[C@H](O)[C@@H]2C[C@H](c3c(O)ccc(Cl)c3Cl)CN12 (relative stereo) [Compound 225]", "> 30 µM"),
    ("O=C1C[C@H](CO)C[C@@H]2C[C@H](c3c(O)ccc(Cl)c3Cl)CN12 (single isomer, unassigned) [Compound 238]", "> 30 µM"),
    ("O=C1O[C@@H](CO)C[C@@H]2C[C@H](c3c(O)ccc(Cl)c3Cl)CN12 (single isomer, unassigned) [Compound 269]", "> 30 µM"),
    ("O=C1CN(C[C@H]2CCN2)C[C@@H]2C[C@H](c3c(O)ccc(Cl)c3Cl)CN12 (single isomer, unassigned; isomer 2) [Compound 140]", "> 30 µM"),
    ("O=C1CN(C(=O)C2(CO)CC2)C[C@@H]2C[C@H](c3c(O)ccc(Cl)c3Cl)CN12 [Compound 67]", "> 30 µM"),
    ("C[C@H]1[C@@H]2C[C@H](c3c(O)ccc(Cl)c3Cl)CN2C(=O)CN1C(=O)CO (single isomer, unassigned; isomer 2) [Compound 88]", "> 30 µM"),
    ("CN(CCO)[C@@H]1CC(=O)N2C[C@@H](c3c(O)ccc(Cl)c3Cl)C[C@H]2C1 (single isomer, unassigned) [Compound 204]", "> 30 µM"),
    ("O=C1CN([C@H]2CCNC2)C[C@@H]2C[C@H](c3c(O)ccc(Cl)c3Cl)CN12 [Compound 142]", "> 30 µM"),
    ("O=C1CN([C@@H]2C[C@@H](O)[C@@H](O)C2)C[C@@H]2C[C@H](c3c(O)ccc(Cl)c3Cl)CN12 (relative stereo) [Compound 131]", "> 30 µM"),
    ("O=C(C[C@@H](O)C1CC1)N1CC(=O)N2C[C@@H](c3c(O)ccc(Cl)c3Cl)C[C@H]2C1 [Compound 72]", "< 30 µM"),
    ("CNCC1OC(=O)N2C[C@@H](c3c(O)ccc(Cl)c3Cl)C[C@@H]12 (stereo partly drawn) [Compound 281]", "< 30 µM"),
    ("O=C(C[C@@H](O)C(F)F)N1CC(=O)N2C[C@@H](c3c(O)ccc(Cl)c3Cl)C[C@H]2C1 [Compound 76]", "> 30 µM"),
    ("O=C1CN(C2CC(O)C2)C[C@@H]2C[C@H](c3c(O)ccc(Cl)c3Cl)CN12 (stereo partly drawn) [Compound 123]", "> 30 µM"),
    ("CNC(=O)CN1CC(=O)N2C[C@@H](c3c(O)ccc(Cl)c3Cl)C[C@H]2C1 [Compound 111]", "> 30 µM"),
    ("CC1(O)CN(C(=O)N2CC(=O)N3C[C@@H](c4c(O)ccc(Cl)c4Cl)C[C@H]3C2)C1 [Compound 100]", "> 30 µM"),
    ("O=C1CC(CN2CCNCC2)C[C@@H]2C[C@H](c3c(O)ccc(Cl)c3Cl)CN12 (stereo partly drawn) [Compound 241]", "> 30 µM"),
]
